assay: NCI Yeast Anticancer Drug Screen. Data for the mec2-1 strain (AID 157); conditions: S. cerevisiae mec2-1 strain, at 50.0 µM, hits give high values
This is part of a sample that, as a whole, favours compounds with a hit. Of some 79,000 tested, about 15% had one in any assay. Where a SMILES comes first, the peptide text is derived from it. The star is where a group is joined. Boc = CC(C)(C)OC(=O)*; tBu = CC(C)(C)*
observed property: growth inhibition (%)
Kindly provide the numeric value in % only, without the unit symbol.

For orientation, consider the following solved cases.
Cc1ccc(OC(=O)NC(C)(C)C)cc1 | -18.9
OC1CCCCC1[n+]1ccccc1 (configuration not stated) | -0.6
CC(C)(C)c1c(C#N)nnc2cc(-c3ccccc3)nn12 | 8.85
CC(OC(C)(C)C)C(NC(=O)C(N)CCCCNC(=O)OC(C)(C)C)C(=O)NC(Cc1ccccc1)C(=O)O (configuration not stated) (H-Lys(Boc)-Thr(tBu)-Phe-OH; configuration not given here) | -11.6
CCOC(=O)c1c[nH]c(=S)[nH]c1=O | -8.4
O=C(O)/C=C/SCc1ccccc1 | -13.2
CCN(CCO)CCCC(C)Nc1ccnc2cc(Cl)ccc12 (configuration not stated) | -66.5
CCOC(=O)/C(=C\c1ccc(OCc2ccccc2)c(OC)c1)C(=O)c1ccccc1 | -9.55

Per the record, COc1cc(OC)c(C(C)=O)cc1OC has growth inhibition of -13.9

Entry under test: O=[N+]([O-])c1ccccc1S(=O)(=O)c1cc(Cl)cc2c1NCCC2 . Its growth inhibition was 0.15

Item: CCOc1ccccc1NC(=O)C1=C(C)NC(C)=C(C(=O)Nc2ccccc2OCC)C1c1ccc([N+](=O)[O-])cc1 | growth inhibition: 27.2

The value of growth inhibition measured for the molecule CCOC(=O)CCC(NC(=O)c1ccc(Nc2cnc3cc(C(F)(F)F)ccc3n2)cc1)C(=O)OCC (configuration not stated) turned out to be -12.8

In plain terms, C/C(CC(=O)Nc1ccc(Cl)cc1)=N\NC(=O)C[n+]1ccccc1 has a documented growth inhibition of -17.6

Entry under test: C=NC1CCCCC1 . Its growth inhibition was -3.75

growth inhibition reading for CC(C)C1=CC(=Nc2ccc(N(C)C)cc2)C=CC1=O : 6.4

get_value(item= CC(=O)NNc1nc(C)c(C(/C=C/c2ccc([N+](=O)[O-])cc2)=N/NC(N)=S)s1 , readout=growth inhibition) returns -2.25

growth inhibition reported for this molecule CS(=O)(=O)OCC1C2CCC(CC2)C1COS(C)(=O)=O (configuration not stated) : 17.3

---

experiment: NCI Yeast Anticancer Drug Screen. Data for the rad50 strain (AID 155);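 note: 0% = growth of vehicle-only cultures of the same strain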; conditions: S. cerevisiae rad50 strain growth inhibition; at 50.0 µM; hits give high values
The panel holds about 79,000 compounds, 15% with a hit somewhere; the sample as a whole holds those more often.
observed property: growth inhibition (%)
// units = %; emit number, no label

# count of solved cases: 5
COC(=O)c1sc(C(=O)OC)c2c1CSC2 | -6
[N-]=[N+]=NC(=O)c1ccc(S(=O)(=O)c2ccc(F)cc2)cc1 | 13.4
Cc1ccc(SCC(CF)OC(C)n2cnc3c(Cl)nc(N)nc32)cc1 (configuration not stated) | 14.3
Cc1nc2ccc(-c3ccccc3)cc2nc1C | -9.25
N#Cc1nc(NC(=O)c2ccccc2)sc1N | -5.7

Moving on to another molecule below.
O=C(Nc1c(Oc2ccc(Cl)c(Cl)c2)ccc(Cl)c1S(=O)(=O)O)Nc1c(Oc2ccc(Cl)c(Cl)c2)ccc(Cl)c1S(=O)(=O)O has a reported growth inhibition of 22.2

---

assay: NCI Yeast Anticancer Drug Screen. Data for the mlh1 rad18 strain (AID 175); conditions: S. cerevisiae mlh1 rad18 strain growth inhibition; at 50.0 µM; hits give high values
About 79,000 compounds went through this panel and 15% of them were active in at least one assay; those are over-represented in the sample as a whole.
observed property: growth inhibition (%)
Provide the reading as a plain figure in %.

Reported growth inhibition of CCOC(=O)/C(C#N)=C(O)\C(=C\c1ccc(Cl)cc1)NC(=O)c1ccc(NC(C)=O)cc1 : 5.65

C=CCCCCCCCCCCCCCCC yielded growth inhibition of -35

For record CCS(=O)(=O)/C=C/c1cccnc1 the listed growth inhibition is 9.5

Value of growth inhibition reported for the molecule CC(C)(C)[Si](C)(C)OCC1OC(n2cc(I)c(=O)[nH]c2=O)C(O[Si](C)(C)C(C)(C)C)C1O[Si](C)(C)C(C)(C)C (configuration not stated) is -33.5

For reference, reported growth inhibition for NC(=O)c1cc2ccccc2c2ccccc12 stands at -3.85

---

Entries and their measured growth inhibition follow.
experiment: NCI Yeast Anticancer Drug Screen. Data for the bub3 strain (AID 167); conditions: S. cerevisiae bub3 mutant strain, at 50.0 µM, hits give high values
This is part of a sample that, as a whole, favours compounds with a hit. Of some 79,000 tested, about 15% had one in any assay.
Give a bare numeral; the unit % is implied.

CSc1ccc([C@@H](O)[C@H](CO)NC(=O)C(Cl)Cl)cc1 | 74.1
O=C(CC[n+]1ccccc1)NCCCCCCNC(=O)CC[n+]1ccccc1 | -17.4

Short answer for Cc1ccc(S(=O)(=O)NC2(C=O)CCCC3CCCCC32)cc1 (centres undefined) : growth inhibition was 0

---

experiment: NCI Yeast Anticancer Drug Screen. Data for the mlh1 rad18 strain (AID 175); conditions: S. cerevisiae mlh1 rad18 strain growth inhibition; at 50.0 µM; hits give high values
This is part of a sample that, as a whole, favours compounds with a hit. Of some 79,000 tested, about 15% had one in any assay.
Measured growth inhibition, listed per entry for reference.
Report the value in % with no unit label.

Example cases with answers are listed next.
CC1=CC2=C(C(N)=O)C(=O)OC2(C)C(c2ccccc2)C1 (configuration not stated) | 5.7
Nc1ccc(S(=O)(=O)Nc2ccccn2)cc1 | -17.4
CN(C)C(=O)c1ccc[n+](CC(=O)NCc2ccccc2)c1 | 13.5

The value of growth inhibition measured for the compound CC(=O)Nc1cc(NC(C)=O)c(N=O)c(NC(C)=O)n1 turned out to be 7.35

// O=c1/c(=C/c2ccc(Cl)cc2)sc2nc(-c3ccccc3)nn12 : growth inhibition value = 23.6

Quick note, growth inhibition for COC(=O)c1cc2ccccc2cc1Nc1ccc2ccccc2c1 landed at 7.3

Noted for CC(=O)N1c2ccccc2S(=O)(=O)c2ccccc21 : its growth inhibition reads 0.25

Quick note, growth inhibition for COc1cc(Nc2nc3ccccc3nc2C(=O)O)cc(OC)c1OC landed at -45.4

Please fill in: growth inhibition reported for C=CCc1cc(Br)ccc1O = 33.5

The measured growth inhibition associated with CCC1(C)C(=O)C(C)(CC)C1=O (configuration not stated) reads 6.85

Looking up O=C(NCCCC1NC(=O)/C(=C(O)/C=C/C=C/c2ccccc2)C1=O)OCc1ccccc1 (configuration not stated) , I found its growth inhibition recorded as 21.8

---

Assay: NCI Yeast Anticancer Drug Screen. Data for the bub3 strain (AID 167)
Conditions: S. cerevisiae bub3 mutant strain, at 50.0 µM, hits give high values
Protocol: Growth inhibition of yeast strains with defined genetic alterations is measured as a screen for potential anti-cancer activity. Selected strains with alterations in DNA damage repair or cell cycle control were exposed to compounds and growth inhibition was measured relative to vehicle treated controls. The strain used in this assay is bub3
This is part of a sample that, as a whole, favours compounds with a hit. Of some 79,000 tested, about 15% had one in any assay. Where a SMILES comes first, the peptide text is derived from it. Bridges are numbered along the chain shown (N, C = ends). [ ]: non-standard residue; d: D form. The star is where a group is joined. Cbz = O=C(OCc1ccccc1)*; Nva = CCC[CH](N)C(=O)O; PhAc = O=C(Cc1ccccc1)*
Listing: growth inhibition of selected compounds
# unit: % | format: bare number

Check out these entries, answers already filled in.
CCN(CC)c1c(C)c(-c2ccccc2)oc(=O)c1Cl | 6.85
CC1CN(C(=O)Nc2ccc([N+](=O)[O-])cc2)CC(C)O1 (centres undefined) | -3.65
O=c1c2cc([N+](=O)[O-])ccc2n2n1CCCC2 | -16
Cc1cc(Br)ncc1[N+](=O)[O-] | -3.7
CCCC(NC(=O)OCc1ccccc1)C(=O)NC(CO)C(=O)O (centres undefined) (Cbz-[Nva]-Ser-OH; configuration not given here) | 8.25

The reported value for CN1CCCCCC1 in terms of growth inhibition is -10.9

For this compound ( O=c1c2c(nc3n1CCC3)OC(c1ccccc1)C2 (centres undefined) ), measured growth inhibition is -2.95

Short answer for O=C(O)c1cc([N+](=O)[O-])cc(P(=O)(O)O)c1 : growth inhibition was -3.55

Query O=C(Cc1ccccc1)N[C@@H]1COC(=O)[C@@H]2CCCN2C(=O)[C@@H]2CCCN2C1=O (PhAc-[dS]-Pro-Pro; ester 1-C) yields growth inhibition of -1.7

Consider O=Nc1ccc(O)c2ncccc12 . Its measured growth inhibition is 1.5

Lab book: growth inhibition of O=C(O)c1onc2ccccc12 noted as -5.15

What the record says about CCOC(=O)Nc1nc(-c2ccc(Br)cc2)cs1 : growth inhibition is 14.1

The reported growth inhibition of the compound C(=Nc1ccccc1)Nc1ccccc1 was -15.4

Lookup result for CCCCNc1nc2nc[nH]c2c(=O)[nH]1 ; measured growth inhibition: -29.1
